target: Torsin-1A-interacting protein 2 (Homo sapiens); experiment: LULL1 binders on small-molecule microarray, primary screen, cell lysate, human LULL1 lysate, 635/667 nm fluorescence (AID 1092); details: hLULL1 lysate binding, 635 nm fluorescence, higher = more signal;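 also: probe is lysate of COS7 cells overexpressing human LULL1; score merges per-feature 667 nm fluorescence with signal-to-noise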
Tag: Condition met if measured composite z-score is not below 2, Condition not met if it is.

Task item: Hi team, for CCOC(=O)[C@H](Cc1ccccc1)NC(=O)CCC1CC(OC(=O)NCCc2ccc(F)cc2)CC2(CCCC(COC(=O)NCc3ccccc3)O2)O1 (some centres not stated) , is the recorded composite z-score at or above 2?
Reply: Condition not met

Task item: Moving on to "CON=Cc1ccc(C(=O)N2[C@H](c3ccc(C)cc3)[C@@H](C)CC[C@H]2C(=O)OC)cc1"
Reply: Condition not met

Task item: Ok, now "CO[C@H]1COC(=O)CCC[C@@H](C)[C@H](OC)COC(=O)[C@@H](C)NC(=O)CC=C[C@@H]1C"
Reply: Condition not met

Task item: Now give it for COC(=O)[C@H](C)NC(=O)CCC1CC(OC(=O)NCc2ccc3c(c2)OCO3)CC2(CCCC(COC(=O)NCC(c3ccccc3)c3ccccc3)O2)O1 (some centres not stated) too.
Reply: Condition met

Task item: Similarly, "CC(C)CON=C1C[C@@H](O)[C@@H](O)[C@@H]2[C@@H]3C(=O)N(c4ccc(F)cc4F)C(=O)[C@@H]3CC[C@H]12" ?
Reply: Condition not met

Task item: Try COC(=O)[C@H](C)NC(=O)CCC1CC(OC(=O)NCc2ccc3c(c2)OCO3)CC2(CCCC(COC(=O)NCC3CCCCC3)O2)O1 (some centres not stated) next.
Reply: Condition met
